Molecular target: Calmodulin-1 (Homo sapiens) (UniProt P0DP23)
Test: calcium-bound CALM1 binders on microarrays, profiling panel, artefact control for SMM control-protein annotation, biochemical, small-molecule microarray, Cy5-labelled CALM1, plus calcium (AID 1112);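 further: score merges spot fluorescence with signal to noise from triplicate slides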
Settings: Cy5-CALM1 binding fluorescence, higher = more signal
VALUE_KIND: composite z-score
Answers are plain numbers.

Consider the reported composite z-score for these molecules:
• CCOC(=O)[C@H](Cc1ccccc1)NC(=O)CCC1CC(OC(=O)NCc2cccc3ccccc23)CC2(CCCC(COC(=O)NCCC(C)C)O2)O1 (stereo not given in full) = -0.29
• CCN1C(=O)[C@H]2[C@H]3[C@H](O)[C@H](O)CC(=O)[C@@H]3CC[C@H]2C1=O = -0.493
• CCO[C@H](c1cc(OC)cc([N+](=O)[O-])c1OC)[C@H](C)C=CCC(=O)OC = -1.36
• CC(C)CON=C1[C@H]2CCn3c(=O)n(Cc4cc5c(cc4Cl)OCO5)c(=O)n3[C@H]2[C@H](O)[C@@H]2O[C@H]12 = -0.635
• COc1ccc(O[C@H]2C=C[C@@H](c3ccccc3)O[C@@H]2CON=C(C)CCC(=O)OC[C@H]2O[C@H](c3ccccc3)C=C[C@@H]2Oc2ccc(OC)cc2)cc1 = -0.702

Kindly give each listed record's composite z-score.
1. Cn1c(=O)n2n(c1=O)[C@H]1[C@H](O)[C@@H]3O[C@@H]3C(=NOCc3ccccc3)[C@H]1CC2
2. CO[C@H](C1CCCCC1)[C@H](C)C=CCC(=O)OCCCc1ccccc1
3. CC(CCC(=O)OC[C@H]1O[C@H](C#Cc2ccccc2)C=C[C@@H]1Oc1ccc(C)cc1)=NO[C@H](C)c1cn([C@H](CO)Cc2ccccc2)nn1

stdout:
0.33
-0.937
-0.0351

Kindly give each listed record's composite z-score.
1. C=C(C)C(=O)OCC1CN2[C@@H](CC[C@@H](C)[C@@H]2c2ccc(Br)cc2)C(=O)O1 (stereo not given in full)
2. C#CCCCON=C1C[C@@H](O)[C@@H](O)[C@@H]2[C@@H]3C(=O)N(c4ccc(F)cc4F)C(=O)[C@@H]3CC[C@H]12
3. CC[C@@H](c1ccccc1)n1c(=O)n2n(c1=O)[C@H]1[C@H](O)[C@@H]3O[C@@H]3C(=NOC[C@@H](O)COCc3ccco3)[C@H]1CC2
4. C#CCCCON=C1C[C@@H](O)[C@@H](O)[C@@H]2[C@@H]3C(=O)N(C(C)(C)C)C(=O)[C@@H]3CC[C@H]12
5. CON=C[C@@H](NS(=O)(=O)c1ccc(C)cc1)[C@H](C)C=CCC(=O)OC

stdout:
[-0.566, -0.693, -1.51, -0.0493, -1.31]

Kindly give each listed record's composite z-score.
1. CC(C)=CCCC(C)=CCON=C1C[C@@H](O)[C@@H](O)[C@@H]2[C@@H]3C(=O)N(Cc4ccccc4)C(=O)[C@@H]3CC[C@H]12
2. COC(=O)[C@@H]1CC[C@H](C)[C@@H](c2ccc(C)cc2)N1C(=O)c1ccc(C=NO[C@H](C)c2cn([C@H](CO)Cc3ccccc3)nn2)cc1

stdout:
1: -0.985; 2: -0.139

----------
Test: adipocyte viability effects, profiling panel, cell-based, 3T3-L1 adipocytes, calcein-AM fluorescence, 48 h, basal (AID 1163); further: test concentration not given here
Settings: 3T3-L1 adipocytes viability, higher = more signal
Binarize z-score at -0.05; below is Satisfied, at or above is Not satisfied.

- COC(=O)[C@H](C)NC(=O)CCC1CC(OC(=O)NCc2cccc3ccccc23)CC2(CCCC(COC(=O)NCC(c3ccccc3)c3ccccc3)O2)O1 (some centres undefined): Satisfied
- C=CC[C@@H]1C=C[C@H](ON=C[C@@H](C)[C@H](OCc2ccccc2)C(C)C)[C@@H](CO)O1: Satisfied

Now take the following molecule into account.
stdin: # TODO verify z-score < -0.05 strictly for this molecule: CO[C@H]1COC(=O)CC=C[C@@H](C)[C@H](OC)COC(=O)CCC[C@@H]1C
stdout: Satisfied

----------
Biological target: Neurogenic locus notch homolog protein 3 (Homo sapiens)
Assay: NOTCH3 binders on small-molecule microarray, primary screen, biochemical, 635/667 nm fluorescence (AID 1096)
Conditions: NOTCH3 binding, 635 nm fluorescence, higher = more signal
Kindly state composite z-score for each of the entries shown.
Give bare numbers.

Consider the reported composite z-score for these compounds:
* COC(=O)C=CCCc1coc(C=CCNC(=O)OC)n1 | 1.08
* CO[C@H]1COC(=O)CC=C[C@@H](C)[C@H](OC)COC(=O)CCC[C@@H]1C | 0.288
* O=C1C2=CC[C@H]3C(=O)N(c4cccc(Oc5ccccc5)c4)C(=O)[C@H]3[C@H]2[C@H](O)[C@@H]2O[C@H]12 | 0.92

Kindly give each listed record's composite z-score.
1. CCOC(=O)[C@H](Cc1ccccc1)NC(=O)CCC1CC(OC(=O)NCCc2ccc(F)cc2)CC2(CCCC(COC(=O)NCC3CCCCC3)O2)O1 (stereo not given in full)
2. CC(CCN1CCc2nc(-c3ccccc3)c(-c3ccccc3)cc2C1)=NOC[C@@H](O)[C@H]1O[C@@H]2OC(C)(C)O[C@@H]2[C@H]1O
3. O=C1[C@H]2[C@H]3[C@H](O)[C@H](O)CC(=NOCc4ccccc4)[C@H]3CC[C@H]2C(=O)N1Cc1ccc2c(c1)OCO2
4. Cc1ccc(S(=O)(=O)OC[C@H]2CN3[C@H](c4ccc(Br)cc4)[C@@H](C)CC[C@H]3C(=O)O2)cc1

stdout:
1. 1.07
2. 0.41
3. 0.546
4. 0.323

Kindly give each listed record's composite z-score.
1. COC(=O)[C@H](C)NC(=O)CCC1CC(OC(=O)NCc2ccc3c(c2)OCO3)CC2(CCCC(COC(=O)NCC(c3ccccc3)c3ccccc3)O2)O1 (stereo not given in full)
2. CO[C@H]1COC(=O)CCC[C@@H](C)[C@H](OC)COC(=O)[C@@H](C)NC(=O)CC=C[C@@H]1C
3. CCOC(=O)[C@H](Cc1ccccc1)NC(=O)CCC1CC(OC(=O)NCc2cccc3ccccc23)CC2(CCCC(COC(=O)NCc3ccccc3)O2)O1 (stereo not given in full)

stdout:
[1.06, 0.571, 0.955]

Kindly give each listed record's composite z-score.
1. CCCCC#C[C@@H]1C=C[C@H](Oc2ccc(C(=O)OC)cc2)[C@@H](COC(=O)OCC)O1
2. C#CCCCON=C1C[C@@H](O)[C@@H](O)[C@@H]2[C@@H]3C(=O)N(C(C)(C)C)C(=O)[C@@H]3CC[C@H]12

stdout:
1: 0.531; 2: -0.326

Kindly give each listed record's composite z-score.
1. Cc1ccc(S(=O)(=O)n2c3ccccc3c3nnc(C(=O)c4ccccc4)nc32)cc1
2. CO[C@H]1COC(=O)[C@@H](C)COC(=O)[C@H](COCc2ccccc2)NC(=O)CC=C[C@H]1C
3. COC(=O)[C@H](C)NC(=O)CCC1CC(OC(=O)NCc2cccc3ccccc23)CC2(CCCC(COC(=O)NCC(c3ccccc3)c3ccccc3)O2)O1 (stereo not given in full)

stdout:
-0.467
-0.944
1.09

----------
Target: Homeobox protein Hox-A13 (Mus musculus) (UniProt Q62424)
Sequence (Q62424 whole entry, looked up): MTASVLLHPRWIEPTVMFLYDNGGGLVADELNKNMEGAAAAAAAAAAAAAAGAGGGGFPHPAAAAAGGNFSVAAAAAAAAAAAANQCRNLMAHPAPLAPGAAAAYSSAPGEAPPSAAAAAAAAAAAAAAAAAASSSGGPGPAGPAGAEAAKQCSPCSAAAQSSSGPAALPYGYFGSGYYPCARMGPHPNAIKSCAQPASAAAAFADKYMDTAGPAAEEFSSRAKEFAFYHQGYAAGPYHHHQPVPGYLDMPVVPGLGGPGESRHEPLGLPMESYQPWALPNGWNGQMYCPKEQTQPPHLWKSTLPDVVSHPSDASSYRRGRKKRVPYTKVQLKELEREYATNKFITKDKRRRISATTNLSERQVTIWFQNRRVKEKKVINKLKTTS
Experiment: inhibitors of HoxA13-DNA binding, primary screen, biochemical, fluorescence polarization, labeled oligonucleotide (AID 1185)
Conditions: 15 min, higher = more signal, called active from +8 up or from −8 down
Kind request: treat -3 as inclusive, so z-score at -3 or higher is satisfied, anything lower is not satisfied.

Worked set:
* CCN1C(=O)[C@H]2[C@H]3[C@H](O)[C@H](O)CC(=O)[C@H]3CC[C@H]2C1=O | satisfied
* CCOC(=O)[C@H](CC(C)C)NC(=O)CCC1CC(OC(=O)NCc2cccc3ccccc23)CC2(CCCC(COC(=O)NCCc3ccc(Cl)cc3)O2)O1 (stereo partly drawn) | not satisfied
* COC(=O)[C@H](C)NC(=O)CCC1CC(OC(=O)NCc2ccc3c(c2)OCO3)CC2(CCCC(COC(=O)NCCc3ccccc3OC)O2)O1 (stereo partly drawn) | not satisfied

stdin: Quick check, z-score >= -3? O=C1[C@H]2[C@H]3[C@H](O)[C@H](O)CC(=NOC[C@@H](O)COCc4ccco4)[C@H]3CC[C@H]2C(=O)N1c1ccc(F)cc1F
stdout: satisfied

stdin: Quick check, z-score >= -3? CC(C)=CCCC(C)=CCON=C1C[C@@H](O)[C@@H](O)[C@@H]2[C@@H]3C(=O)N(C(C)(C)C)C(=O)[C@@H]3CC[C@H]12
stdout: satisfied

stdin: Quick check, z-score >= -3? COC(=O)[C@H](C)NC(=O)CCC1CC(OC(=O)NCCc2ccc(F)cc2)CC2(CCCC(COC(=O)NCCC(C)C)O2)O1 (stereo partly drawn)
stdout: not satisfied

stdin: Quick check, z-score >= -3? CCCNC(=O)OC[C@H]1O[C@H](CCON=C(C)C)C=C[C@@H]1Oc1ccc(OC)cc1
stdout: satisfied
